- method: chemical genetic growth profiling, strain panel (AID 1159580);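 note: tested at 20 µM; growth read once vehicle control cultures reached saturation at 30 °C; 1 = growth at the plate median or of vehicle wells; lower values mean less growth of the strain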
- runConditions: S. cerevisiae deletion strains, growth OD, locus YPR025C, strain CCL1, stronger effect = lower value
The campaign covered roughly 5,500 compounds. About 2,000 (36%) were called active. Inconclusive results (about 18%) are left out. This is one part of the list.
recordedMetric: normalized growth
Give the figure only, with no unit attached.

O=C(/C=C/c1ccc2c(c1)OCO2)Nc1ccc(Br)cc1 :: 0.958

State its normalized growth for this compound: COc1cccc(C2CCN(C(=O)c3cccc4ccccc34)CC2)c1
0.995

Dear colleague, please send me the reported normalized growth for O=C(Nc1cccc(C(F)(F)F)c1)c1cncc(C#Cc2ccccc2)c1 when you can.
0.977

Recall and state the measured normalized growth for CC1(C)CC(=O)C=C(Sc2nc3ccccc3o2)C1 .
0.968

Give me measured normalized growth, please, for this compound: C/C(Cc1nnn(-c2cc(C)on2)n1)=N/OC(=O)Nc1ccc(Cl)cc1
0.991

Look up and report measured normalized growth for this entry: Cc1cc(C(=O)NNS(=O)(=O)c2ccc(F)c(Cl)c2)nn1-c1c(Cl)cc(Cl)cc1Cl
0.981
